Ref: the SangsterLogP compilation

# key: entry, value: logP
test readout: logP

| smiles string | test readout | numeric value |
| --- | --- | --- |
| CCOc1ncc(-c2ccncc2)cc1C#N | logP | 2.59 |
| COCCOc1ncc(-c2ccncc2)cc1C#N | logP | 1.96 |
| COc1nc(C)c(-c2ccncc2)cc1C#N | logP | 2.41 |
| N#Cc1cc(-c2ccncc2)cnc1Oc1ccccc1 | logP | 3.09 |
| COc1ncc(-c2ccncc2)cc1C#N | logP | 2.02 |
| COCCOc1nc(C)c(-c2ccncc2)cc1C#N | logP | 2.4 |
| N#Cc1cc(-c2ccncc2)cnc1OCCOCCO | logP | 1.5 |
